I'd be grateful if you could share measured ALP for these entries.
Species on record: Rattus norvegicus
test: Open TG-GATES - Regimen: Daily Repeat
Assay type: toxicity, organism-based, Sprague-Dawley
Design: regimen Daily Repeat, gender Male, age 6 weeks
conditions: in vivo, po, 0 mg/kg, 72 h, tissue Plasma, route gavage, dose level Control, time 3 day
State the answer as a number, implicitly in IU/L.

Short answer for NC(=O)N1c2ccccc2C=Cc2ccccc21 [CARBAMAZEPINE] : ALP was 1022.4

Short answer for CC(=O)Oc1ccccc1C(=O)O : ALP was 970.4

Short answer for O=C(O)c1cn(C2CC2)c2cc(N3CCNCC3)c(F)cc2c1=O : ALP was 993.2
